test system: HCT-116 colon cancer; test: Growth of subcutaneous transplanted tumor in nude mice bearing HCT-116 colon cancer; conditions: 15 mg/kg oral gavage, five consecutive days a week, 10 times in total
assay-readout: Weight (g) D15

# compound, system-name, assay-readout, recorded-result
data = [
    ("CC(C)(C)c1cnc(CSc2cnc(NC(=O)CCCCC(=O)Nc3ccn([C@@H]4O[C@H](CO)[C@@H](O)C4(F)F)c(=O)n3)s2)o1 [GI-05]", "HCT-116 colon cancer", "Weight (g) D15", 18.1),
    ("CC(C)(C)c1cnc(CSc2cnc(NC(=O)CCCCCC(=O)Nc3ccn([C@@H]4O[C@H](CO)[C@@H](O)C4(F)F)c(=O)n3)s2)o1 [GI-06]", "HCT-116 colon cancer", "Weight (g) D15", 18.0),
    ("CC(C)(C)c1cnc(CSc2cnc(NC(=O)CCCC(=O)Nc3ccn([C@@H]4O[C@H](CO)[C@@H](O)C4(F)F)c(=O)n3)s2)o1 [GI-04]", "HCT-116 colon cancer", "Weight (g) D15", 19.9),
    ("CC(C)(C)c1cnc(CSc2cnc(NC(=O)CCCCCCCCC(=O)Nc3ccn([C@@H]4O[C@H](CO)[C@@H](O)C4(F)F)c(=O)n3)s2)o1 [GI-09]", "HCT-116 colon cancer", "Weight (g) D15", 18.6),
]
